Reference source for all entries: paper PMC8453901

# ASSAY NOTES: Study 1 MAD part: plasma and urine pharmacokinetics, once daily for 14 days
# Format: in vivo, human
# RECORDED CONDITIONS: male, human, plasma, oral, 200/150 mg once daily, day 14, n = 3; mean (CV%); read-out: t1/2,λz (converted)
METRIC NAME: half-life (h)

{"columns": ["MOLECULE", "ASSAY RESULT"],
 "data": [
  ["O=c1nc(OC[C@@H]2COCCO2)cc2n1CCc1cc(C#CC3CC3)ccc1-2 [GLPG1205]", 141]
]}

* * *

# ASSAY NOTES: Study 1 SAD part: plasma pharmacokinetics after single oral doses
# Type: in vivo, human
# RECORDED CONDITIONS: male, human, plasma, oral; single 400 mg; arithmetic mean, N = 2

{"columns": ["COMPOUND", "UNIT", "AUC(0-inf)"],
 "data": [
  ["O=c1nc(OC[C@@H]2COCCO2)cc2n1CCc1cc(C#CC3CC3)ccc1-2 [GLPG1205]", "µg·h/mL", 224]
]}
